Origin of measurements: patent US10370343B2

target: Recombinant N-terminal GST tag full-length human HDAC8 (Homo sapiens, UniProt Q9BY41); construct: Recombinant N-terminal GST tag full-length human HDAC8; experiment: HDAC8 probe binding assay, time resolved fluorescence (TRF) format; settings: compounds grouped by IC50 range (Table 2)
Sequence (Q9BY41 whole entry): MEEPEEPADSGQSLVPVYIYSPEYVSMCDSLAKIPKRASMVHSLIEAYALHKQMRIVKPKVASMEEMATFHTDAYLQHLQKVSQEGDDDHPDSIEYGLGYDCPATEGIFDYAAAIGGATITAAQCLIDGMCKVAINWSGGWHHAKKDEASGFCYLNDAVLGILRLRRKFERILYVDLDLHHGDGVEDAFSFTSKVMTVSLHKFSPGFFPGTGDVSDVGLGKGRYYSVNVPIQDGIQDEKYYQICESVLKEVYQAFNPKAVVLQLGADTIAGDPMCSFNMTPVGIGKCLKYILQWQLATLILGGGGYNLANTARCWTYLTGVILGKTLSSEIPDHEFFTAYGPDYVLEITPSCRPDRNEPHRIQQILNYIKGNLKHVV
pIC50: −log10 of the molar value.
The following compounds are listed with their measured pIC50 values.

Below are worked cases with known answers.
* O=C(NO)c1ccc2c(c1)N(Cc1ccc3ccccc3c1)C(=O)CO2 | ≥ 7.60
* CC1(C)Oc2ccc(C(=O)NO)cc2N(Cc2cc(-c3ccccc3)on2)C1=O | ≥ 7.60
* O=C(NO)c1ccc2c(c1)N(Cc1ccc(C(F)(F)F)cc1Cl)C(=O)CO2 | ≥ 7.60

Task item: Would you mind telling me what pIC50 value was observed for "COc1cccc(N2C(=O)COc3ccc(C(=O)NO)cc32)c1" ?
Reply: 7.00 to 7.60

Task item: Name the reported pIC50 value associated with the compound "O=C(NO)c1ccc2c(c1)N(Cc1cnn(-c3ccccc3)n1)C(=O)CO2"
Reply: ≥ 7.60

Task item: What does the record list as pIC50 for "O=C(NO)c1ccc2c(c1)N(Cc1cnc3[nH]ccc3c1)C(=O)CO2" ?
Reply: 7.00 to 7.60

Task item: Give the measured pIC50 of "COc1ccc(CN2C(=O)COc3ccc(C(=O)NO)cc32)cc1Cl" .
Reply: ≥ 7.60

Task item: Can you share its pIC50? I mean this compound: "O=C(NO)c1ccc2c(c1)N(Cc1c(Cl)cccc1Cl)C(=O)CO2"
Reply: 7.00 to 7.60

Task item: Recorded pIC50 for "O=C(NO)c1ccc2c(c1)N(Cc1cn3ccsc3n1)C(=O)CO2" , please?
Reply: 7.00 to 7.60
